Below, each of the compounds is paired with its reported molar heat capacity at constant pressure value.
# Experimental protocol: molar heat capacity at constant pressure
# Run conditions: 329.15 K; 101.33 kPa; Liquid; Large sample (1 g) DSC
Recorded endpoint: molar heat capacity at constant pressure (J/K/mol)

# Compound, Recorded endpoint, Reading
rows = [
    ("CCOCCOCCO", "molar heat capacity at constant pressure", 312),
    ("COCCOCCOCCOCCO", "molar heat capacity at constant pressure", 456.6),
    ("CCOCCO", "molar heat capacity at constant pressure", 222.6),
    ("COCCOCCO", "molar heat capacity at constant pressure", 276.6),
    ("CCCCCCOCCOCCO", "molar heat capacity at constant pressure", 436),
    ("COCCOCCOCCO [2-[2-(2-methoxyethoxy)ethoxy]ethanol]", "molar heat capacity at constant pressure", 364.5),
    ("CCCCOCCO", "molar heat capacity at constant pressure", 288.5),
]

###

# Experimental protocol: molar heat capacity at constant pressure
# Run conditions: 293.15 K; 101.33 kPa; Liquid; Large sample (1 g) DSC
Numbers after ± are expanded uncertainties.

# Line notation, molar heat capacity at constant pressure
rows = [
    ("CCCCCCOCCOCCO", "418.7 ± 6.5 J/K/mol"),
    ("CCCCOCCOCCO", "358.1 ± 5.5 J/K/mol"),
    ("COCCOCCOCCOCCO", "447.7 ± 6.9 J/K/mol"),
    ("CCCCOCCO", "270.5 ± 4.2 J/K/mol"),
]

###

# Experimental protocol: molar heat capacity at constant pressure
# Run conditions: 295.15 K; 101.33 kPa; Liquid; Large sample (1 g) DSC
Recorded endpoint: molar heat capacity at constant pressure (J/K/mol)

# Compound, Recorded endpoint, Result units, Reading
measured = [
    ("CCCCOCCOCCO [3,6-dioxa-1-decanol]", "molar heat capacity at constant pressure", "J/K/mol", 359),
    ("CCCCOCCO [2-butoxyethan-1-ol]", "molar heat capacity at constant pressure", "J/K/mol", 271.5),
    ("COCCOCCO [2-(2-methoxyethoxy)ethanol]", "molar heat capacity at constant pressure", "J/K/mol", 266.6),
]

###

# Experimental protocol: molar heat capacity at constant pressure
# Run conditions: 307.15 K; 101.33 kPa; Liquid; Large sample (1 g) DSC
Below, each of the compounds is paired with its reported molar heat capacity at constant pressure value.
Recorded endpoint: molar heat capacity at constant pressure (J/K/mol)

# Compound, Reading
measured = [
    ("COCCOCCO [2-(2-methoxyethoxy)ethanol]", 269.8),
    ("CCCOCCO [2-propoxyethanol]", 245.3),
    ("CCCCOCCO [2-butoxyethan-1-ol]", 277.5),
    ("CCCOCCOCCO [2-(2-propoxyethoxy)ethanol]", 332.8),
]

###

# Experimental protocol: molar heat capacity at constant pressure
# Run conditions: 311.15 K; 101.33 kPa; Liquid; Large sample (1 g) DSC
± gives the expanded uncertainty stated by the source.

# Compound, molar heat capacity at constant pressure
measured = [
    ("CCOCCO [2-ethoxyethan-1-ol]", "215.7 ± 3.3 J/K/mol"),
    ("CCCOCCOCCO [2-(2-propoxyethoxy)ethanol]", "334.4 ± 5.2 J/K/mol"),
    ("CCCCOCCOCCO [3,6-dioxa-1-decanol]", "366 ± 5.7 J/K/mol"),
    ("COCCOCCO [2-(2-methoxyethoxy)ethanol]", "271 ± 4.2 J/K/mol"),
    ("CCCCOCCO [2-butoxyethan-1-ol]", "279.5 ± 4.3 J/K/mol"),
]
